Provide the recorded IC90 for the entries that follow.
system: M. tuberculosis H37Rv growth inhibition, 7H9 media; test: M. tuberculosis growth inhibition, HTS (AID 449762); conditions: measured here: IC90 growth inhibition;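 also: bacterial growth assessed after seven days of incubation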
Records with an inconclusive call do not appear.

# IC90 (molecule: `CC1(C)Cc2c(sc(NC(=O)c3ccc(C(=O)c4ccccc4)cc3)c2C(N)=O)C(C)(C)N1` ) is > 100 µM

So for `N#C/C(=C1\CCCN1)c1nc(-c2ccccc2)cs1` , the logged IC90 turned out to be > 100 µM

Summary for this molecule, COC(=O)C(CCSC)NC(=O)c1cn(-c2ccc(OC)cc2)c(=O)c2ccccc12 (stereo not drawn) : IC90 is > 100 µM

---

tested on: M. tuberculosis H37Rv growth inhibition, 7H9 media; experiment: M. tuberculosis growth inhibition, HTS (AID 449762); settings: measured here: IC90 growth inhibition;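 also: bacterial growth assessed after seven days of incubation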
Records with an inconclusive call do not appear.
Kindly supply the reported IC90 values for the records listed here.

The compound `Nc1nc2ccccc2n1/N=C/c1ccc(Br)cc1` showed IC90 equal to > 25 µM

// recorded IC90 for `Cc1ccc(Nc2nc(CSc3nnc(-c4cccs4)o3)cs2)cc1` : > 100 µM

IC90 reported for this compound `COc1ccc(NC(=O)CSc2nnc(-c3ccccn3)n2N)cc1Cl` : > 100 µM

The compound listed as `COc1ccccc1C(=O)NC(=Nc1nc2ccccc2o1)NC(=O)c1ccccc1OC` has a reported IC90 of > 100 µM

---

system: M. tuberculosis H37Rv growth inhibition, 7H9 media; test: M. tuberculosis growth inhibition, HTS (AID 449762); conditions: measured here: IC90 growth inhibition;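 also: bacterial growth assessed after seven days of incubation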
Results filed as inconclusive are left out.
Can you tell me IC90 for the items I'm about to list?
# unit: µM | format: bare number

Lab book: IC90 of `c1ccc(-c2nc3c(ccc4ccccc43)[nH]2)nc1` noted as 20.3

IC90 recorded for this molecule, `Cc1ccc(CNC(=O)c2sc3nc4c(c(C(F)(F)F)c3c2N)CCC4)cc1` , is 50.9

Entry `CC1=C(/C=C/C(C)=C/C=C/C(C)=C/C(=O)Nc2ccc(O)cc2)C(C)(C)CCC1` ; IC90 = 59.8

So for `CCOC(=O)c1c(-c2ccc(OC)cc2)csc1NC(=O)CNCc1ccco1` , the logged IC90 turned out to be 16.4

For record `CC(C)NC(=S)N/N=C/c1cc(Br)ccc1O` the listed IC90 is 18.3

Recorded IC90 (molecule `CC1CCN(C(=O)C2CCN(c3nnc(-n4cccc4)s3)CC2)CC1` ): 3.37

get_value(item= `C[CH2][Hg][S]c1ccccc1C(=O)O` , readout=IC90) returns 0.81

IC90 in this record for O=C(NC1CCCCC1)C(c1cccs1)N(CCCN1CCOCC1)C(=O)c1ccc(-c2ccccc2)[nH]1 (centres undefined) : 55.5

Form field IC90, entry `O=C(CSCc1ccc([N+](=O)[O-])cc1)N/N=C/c1ccncc1` : 10.3

Reported IC90 for `O=C(c1ccccc1)c1nn(-c2ccc(Cl)cc2)c(=O)cc1C(F)(F)F` was 19.6

Note to self: IC90 recorded for CCCC[C@@H](CN[C@H](C)CNC)NCC1CCC(C(C)(C)C)CC1 (some centres undefined) was 22.7

For this molecule ( COc1ccc(NC(=O)CSC2=C(C#N)C(c3ccco3)C(C(=O)Nc3nc4ccccc4s3)=C(C)N2)cc1 (centres undefined) ), measured IC90 is 7.26

The recorded IC90 for CC(=O)OCC1O[C@@H](O[C@@H]2C[C@H]3C(C)(C)[C@H](OC(C)=O)CC[C@]3(C)[C@H]3CC[C@]45C[C@]4(CC[C@H]5[C@@H](C)C[C@@H](O)[C@H](O)C(C)(C)O)[C@@]32C)[C@H](O)[C@@H](O)[C@@H]1O (some centres undefined) is 39.6

Lab book: IC90 of CCOC(=O)C1CCCN(c2ncnc3c2cnn3-c2ccc(OC)cc2)C1 (centres undefined) noted as 10.7

Looking up `c1ccc(CN2CCN(c3nc(NCc4ccco4)c4ccccc4n3)CC2)cc1` , I see its IC90 listed as 23.8

molecule `Nc1nnnn1/N=C/C(Br)=C/c1ccccc1` , IC90 observed: 8.66

Record `S=C(NCc1ccc(Cl)cc1)NC12CC3CC(CC(C3)C1)C2` . Reported IC90: 11.6

response.value for COCCn1nnnc1C(c1cc2cc(OC)ccc2[nH]c1=O)N1CCC(Cc2ccccc2)CC1 (centres undefined) (field: IC90) = 99.8

Looking up CCCC12CN3CC(CCC)(CN(C1)C3c1ccccn1)C2=O (centres undefined) , I see its IC90 listed as 18.1

Lookup result for `Oc1ccc(C[C@H]2CNCCN2CCCCC2CCCCC2)cc1` ; measured IC90: 59.2

What the record says about `COc1cccc(NC(=S)/C(=C(\[O-])c2cc(C)n(-c3ccccc3F)c2C)[n+]2ccc(N(C)C)cc2)c1` : IC90 is 70.9

---

Can you tell me IC90 for the items I'm about to list?
test system: M. tuberculosis H37Rv growth inhibition, 7H9 media; assay: M. tuberculosis growth inhibition, HTS (AID 449762); conditions: measured here: IC90 growth inhibition;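 also: bacterial growth assessed after seven days of incubation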
Inconclusive results are not listed.

The recorded IC90 for entry `Cc1ccc2c(c1)Oc1ccc(NC(=O)CCl)cc1C(=O)N2` equals > 100 µM

Record summary for `Cc1ccc(C)c(S(=O)(=O)N2CCC(c3nc4c(nnn4Cc4ccc5c(c4)OCCO5)c(=O)[nH]3)CC2)c1` : reported IC90 = > 100 µM

Please fill in: IC90 reported for `Cc1cc(NC(=O)c2sccc2C)n(-c2nc3ccccc3[nH]2)n1` = > 100 µM

Noted for `Oc1ccc(CN2CCc3ccccc3C2)c2cccnc12` : its IC90 reads > 100 µM

Form field IC90, entry `CCOC(=O)c1ccc(NC(=O)CSc2ccc(-c3cccnc3)nn2)cc1` : > 100 µM

compound `Cc1nn(-c2ccccn2)c2c1-c1nc(N3CCOCC3)ncc1CC2` , IC90 observed: > 100 µM

Entry O=C(NC(C(=O)N/N=C/c1cccc2ccccc12)c1n[nH]c(=O)c2ccccc12)c1ccccc1 (stereo unspecified) ; IC90 = > 100 µM

Reported IC90 of `Cc1c(OCc2ccccc2)c(=O)ccn1Cc1ccc(Cl)cc1` : 60.1 µM

Recorded result, `CN(C)CCCN(C(=O)c1ccc([N+](=O)[O-])s1)c1nc2cc3c(cc2s1)OCCO3` , IC90: 45.5 µM

Memo: `NC(=O)c1cccc(-c2cc(Nc3ccc(OC(F)(F)F)cc3)ncn2)c1` , reported IC90: 18.4 µM

// `Cc1ccc(/C=C/S(=O)(=O)NCC(=O)OCC(=O)Nc2c(F)cccc2F)cc1` : IC90 value = 13.2 µM

Sample `COC(=O)CSc1[nH]c2ccc(Br)cc2c1[N+](=O)[O-]` ; IC90 observed: 9.31 µM

Record summary for `CS(=O)(=O)c1nc(-c2ccccc2)cc(C(F)(F)F)n1` : reported IC90 = 18.7 µM

Summary for this compound, `Cc1cc(C=C2C(=O)NC(=S)NC2=O)c(C)n1C1CCCC1` : IC90 is 47.2 µM

Form field IC90, entry `Cc1nc2ccccc2c2nc3ccccc3n12` : 55.2 µM

IC90 measured on `COc1cccc(Nc2ccc([N+](=O)[O-])c3nonc23)c1` = 13.6 µM

Form field IC90, entry `Cn1c(=O)c(C(=O)NNC(=O)c2cccc(Cl)c2)c(O)c2ccccc21` : 1.28 µM

The compound listed as `O=C(NC(=S)N1CCc2ccccc21)c1ccc(Br)o1` has a reported IC90 of 9.62 µM

Please fill in: IC90 reported for `Cc1cc(/C=C(/C#N)c2cccc(F)c2)c(C)n1-c1cccnc1` = > 100 µM

Recorded IC90 (compound `CN(C)c1ccc(N=Nc2ccccc2C(=O)OCC(=O)NCC2CCCCC2)cc1` ): 13.1 µM

Sample `N/C(=N\NC(=O)c1sccc1OCc1ccc(Cl)cc1Cl)c1ccccn1` ; IC90 observed: 46 µM

Memo: C=C(C)C(=O)OCC(O)COc1ccc(C(C)(C)c2ccc(OCC(O)COC(=O)C(=C)C)cc2)cc1 (stereo unspecified) , reported IC90: 48.5 µM

IC90 recorded for this compound, `O=C(CSc1ccccn1)Nc1nonc1[N+](=O)[O-]` , is 2.25 µM

Cc1ccc(/C=C/C(=O)N2CC(C)CC(C)C2)o1 (stereo unspecified) has a reported IC90 of 22.1 µM

Record `Cc1nc([N+](=O)[O-])c(Br)n1CC(=O)c1ccc2ccccc2c1` . Reported IC90: 11.9 µM

// IC90 lookup, compound = `CN(CCCC1CCCC1)C(=O)CCc1nnc(-c2ccccc2)o1` , result: 20.1 µM

Reported IC90 for `c1ccc(-c2nccc(-c3ccc(-n4cnc5ccccc54)cc3)n2)nc1` was 16.5 µM

Consider `c1ccc(CN2CCC3(CCCc4ccccc43)CC2)cc1` . Its measured IC90 is 13.6 µM

Sure, the documented IC90 for `CCCOC(=O)/C(=C\c1ccc([N+](=O)[O-])o1)NC(=O)c1ccccc1` is 16.2 µM

Entry `CCOC(=O)c1ccc(NC(=S)NCCc2ccc(F)cc2)cc1` , IC90 reported as > 100 µM

So for `CCCCCCCC(=O)N/N=C(/C)c1c(O)cc(C)oc1=O` , the logged IC90 turned out to be > 100 µM

Form field IC90, entry `c1ccc2sc(Sc3ncnc4sccc34)nc2c1` : 6.95 µM

Kindly note the recorded IC90 for `Cc1nc2sccn2c1-c1nc(-c2cc3ccccc3o2)cs1` , which is 90.7 µM

`CCc1ccc(-c2cc(C)no2)cc1S(=O)(=O)NCCCN1CCN(c2ccccc2)CC1` has a reported IC90 of 44.7 µM

Summary for this compound, `COc1ccc(Cl)cc1C(=O)O/N=C(\N)c1ccccn1` : IC90 is > 100 µM

Entry under test: `CCc1ccc2c(c1)/C(=C/C(=O)c1cccs1)C(=O)N2` . Its IC90 was 3.19 µM
